Recorded MIC for the following molecules
- Tested on: Staphylococcus aureus
- test-name: Antibacterial activity against methicillin-resistant Staphylococcus aureus CCARM 3506 assessed as bacterial growth inhibition measured during 24 hrs incubation at 37 degC by two-fold serial dilution technique
- Type: functional
- reported-conditions: CCARM 3506, 24 h
value-kind: MIC (µg/mL)

{"columns": ["molecule", "unit-of-measure", "result-operator", "reported-result"],
 "data": [
  ["Cc1ccc(Oc2c(/C=C3\\SC(=S)N([C@H](C(=O)O)C(C)C)C3=O)c(C)nn2-c2ccccc2)c(C)c1", "µg/mL", "=", 4],
  ["Cc1cccc(Oc2c(/C=C3\\SC(=S)N([C@H](C(=O)O)C(C)C)C3=O)c(C)nn2-c2ccccc2)c1", "µg/mL", "=", 8],
  ["CCC(C)[C@@H](C(=O)O)N1C(=O)/C(=C/c2c(C)nn(-c3ccccc3)c2Oc2ccc(F)cc2)SC1=S (stereo partly drawn)", "µg/mL", "=", 4],
  ["Cc1nn(-c2ccccc2)c(Oc2cccc(C(F)(F)F)c2)c1/C=C1\\SC(=S)N(CC(=O)O)C1=O", "µg/mL", "=", 32],
  ["CCC(C)[C@@H](C(=O)O)N1C(=O)/C(=C/c2c(C)nn(-c3ccccc3)c2Oc2ccc(Br)cc2)SC1=S (stereo partly drawn)", "µg/mL", "=", 2],
  ["CCC(C)[C@@H](C(=O)O)N1C(=O)/C(=C/c2c(C)nn(-c3ccccc3)c2Oc2ccccc2)SC1=S (stereo partly drawn)", "µg/mL", "=", 4],
  ["COc1ccccc1Oc1c(/C=C2\\SC(=S)N([C@H](C(=O)O)C(C)C)C2=O)c(C)nn1-c1ccccc1", "µg/mL", "=", 16],
  ["Cc1nn(-c2ccccc2)c(Oc2ccccc2)c1/C=C1\\SC(=S)N([C@H](C(=O)O)C(C)C)C1=O", "µg/mL", "=", 16],
  ["Cc1nn(-c2ccccc2)c(Oc2cccc(Cl)c2)c1/C=C1\\SC(=S)N([C@H](C(=O)O)C(C)C)C1=O", "µg/mL", "=", 4],
  ["CCC(C)[C@@H](C(=O)O)N1C(=O)/C(=C/c2c(C)nn(-c3ccccc3)c2Oc2ccc3ccccc3c2)SC1=S (stereo partly drawn)", "µg/mL", "=", 2],
  ["Cc1nn(-c2ccccc2)c(Oc2c(Cl)cccc2Cl)c1/C=C1\\SC(=S)N(CC(=O)O)C1=O", "µg/mL", "=", 32],
  ["Cc1nn(-c2ccccc2)c(Oc2ccccc2Cl)c1/C=C1\\SC(=S)N(CC(=O)O)C1=O", "µg/mL", "=", 16],
  ["Cc1ccc(Oc2c(/C=C3\\SC(=S)N([C@H](C(=O)O)C(C)C)C3=O)c(C)nn2-c2ccccc2)cc1", "µg/mL", "=", 4],
  ["Cc1nn(-c2ccccc2)c(Cl)c1/C=C1\\SC(=S)N(CC(=O)O)C1=O", "µg/mL", ">", 64],
  ["Cc1nn(-c2ccccc2)c(Oc2ccccc2Cl)c1/C=C1\\SC(=S)N([C@H](C(=O)O)C(C)C)C1=O", "µg/mL", "=", 4],
  ["Cc1nn(-c2ccccc2)c(Oc2ccccc2)c1/C=C1\\SC(=S)N(CC(=O)O)C1=O", "µg/mL", ">", 64],
  ["CCn1cc(C(=O)O)c(=O)c2cc(F)c(N3CCNCC3)cc21 [NORFLOXACIN]", "µg/mL", "=", 4],
  ["COc1ccc(Oc2c(/C=C3\\SC(=S)N(CC(=O)O)C3=O)c(C)nn2-c2ccccc2)cc1", "µg/mL", ">", 64],
  ["Cc1ccccc1Oc1c(/C=C2\\SC(=S)N([C@H](C(=O)O)C(C)C)C2=O)c(C)nn1-c1ccccc1", "µg/mL", "=", 8],
  ["CCC(C)[C@@H](C(=O)O)N1C(=O)/C(=C/c2c(C)nn(-c3ccccc3)c2Oc2ccccc2C)SC1=S (stereo partly drawn)", "µg/mL", "=", 4],
  ["CCC(C)[C@@H](C(=O)O)N1C(=O)/C(=C/c2c(C)nn(-c3ccccc3)c2Oc2cccc(C(F)(F)F)c2)SC1=S (stereo partly drawn)", "µg/mL", "=", 8],
  ["Cc1onc(-c2ccccc2)c1C(=O)N[C@@H]1C(=O)N2[C@@H]1SC(C)(C)[C@@H]2C(=O)O [OXACILLIN]", "µg/mL", ">", 64],
  ["Cc1nn(-c2ccccc2)c(Oc2ccc(Cl)cc2Cl)c1/C=C1\\SC(=S)N([C@@H](CC(C)C)C(=O)O)C1=O", "µg/mL", "=", 4],
  ["Cc1nn(-c2ccccc2)c(Oc2ccc(Br)cc2)c1/C=C1\\SC(=S)N([C@H](C(=O)O)C(C)C)C1=O", "µg/mL", "=", 4],
  ["CCC(C)[C@@H](C(=O)O)N1C(=O)/C(=C/c2c(C)nn(-c3ccccc3)c2Oc2cccc(C)c2)SC1=S (stereo partly drawn)", "µg/mL", "=", 4],
  ["Cc1cccc(Oc2c(/C=C3\\SC(=S)N(CC(=O)O)C3=O)c(C)nn2-c2ccccc2)c1", "µg/mL", "=", 16],
  ["Cc1nn(-c2ccccc2)c(Cl)c1/C=C1\\SC(=S)N([C@H](C(=O)O)C(C)C)C1=O", "µg/mL", "=", 32],
  ["CCC(C)[C@@H](C(=O)O)N1C(=O)/C(=C/c2c(C)nn(-c3ccccc3)c2Oc2ccc(OC)cc2)SC1=S (stereo partly drawn)", "µg/mL", "=", 4],
  ["Cc1ccccc1Oc1c(/C=C2\\SC(=S)N(CC(=O)O)C2=O)c(C)nn1-c1ccccc1", "µg/mL", "=", 32],
  ["Cc1nn(-c2ccccc2)c(Oc2cccc(C(F)(F)F)c2)c1/C=C1\\SC(=S)N([C@H](C(=O)O)C(C)C)C1=O", "µg/mL", "=", 8],
  ["Cc1ccc(Oc2c(/C=C3\\SC(=S)N([C@@H](CC(C)C)C(=O)O)C3=O)c(C)nn2-c2ccccc2)c(C)c1", "µg/mL", "=", 4],
  ["Cc1nn(-c2ccccc2)c(Oc2ccc(Cl)cc2)c1/C=C1\\SC(=S)N([C@H](C(=O)O)C(C)C)C1=O", "µg/mL", "=", 4],
  ["CCC(C)[C@@H](C(=O)O)N1C(=O)/C(=C/c2c(C)nn(-c3ccccc3)c2Oc2ccc(C)cc2)SC1=S (stereo partly drawn)", "µg/mL", "=", 4]
]}
